test system: UACC-257; assay: Growth inhibition of human UACC257 cells incubated for 48 hrs by sulforhodamine B assay; type: functional, cell-based; settings: UACC-257, 48 h, read-out: LC50 (the source's name)
experimental_readout: CC50 (µM)

compound | system | measurement_units | censoring_sign | val
COc1cc(Cl)cc(-c2nn(-c3cccc(NC(=O)Nc4ccc(Cl)c(C(F)(F)F)c4)c3)cc2-c2ccncc2)c1 | UACC-257 | µM | = | 1.55
COc1cc(Cl)cc(-c2nn(-c3cccc(NC(=O)Nc4cccc(C(F)(F)F)c4)c3)cc2-c2ccncc2)c1 | UACC-257 | µM | = | 21.5
COc1cc(Cl)cc(-c2nn(-c3cccc(NC(=O)Nc4ccc(Cl)c(Cl)c4)c3)cc2-c2ccncc2)c1 | UACC-257 | µM | > | 100
COc1cc(Cl)cc(-c2nn(-c3cccc(NC(=O)c4ccc(N5CCOCC5)c(C(F)(F)F)c4)c3)cc2-c2ccncc2)c1 | UACC-257 | µM | > | 100

* * *

test system: CAKI-1; experiment: Growth inhibition of human Caki1 cells assessed as cell growth at 0.1 uM incubated for 48 hrs by sulforhodamine B assay relative to control; format: functional; conditions: CAKI-1, 48 h, read-out: Activity

compound | growth at 0.1 µM
O=C(Nc1cccc(-n2cc(-c3ccncc3)c(-c3cc(O)cc(Cl)c3)n2)c1)c1ccc(N2CCOCC2)c(C(F)(F)F)c1 | 93%
COc1cc(Cl)cc(-c2nn(-c3cccc(NC(=O)Nc4cccc(C(F)(F)F)c4)c3)cc2-c2ccncc2)c1 | 104%
O=C(Nc1cccc(-n2cc(-c3ccncc3)c(-c3cc(O)cc(Cl)c3)n2)c1)c1cc(C(F)(F)F)cc(C(F)(F)F)c1 | 98%
COc1cc(Cl)cc(-c2nn(-c3cccc(NC(=O)Nc4cc(C(F)(F)F)cc(C(F)(F)F)c4)c3)cc2-c2ccncc2)c1 | 95%
O=C(Nc1cccc(-n2cc(-c3ccncc3)c(-c3cc(O)cc(Cl)c3)n2)c1)Nc1ccc(Cl)c(C(F)(F)F)c1 | 103%

* * *

system: Malme-3M; test: Growth inhibition of human MALME-3M cells assessed as cell growth at 1 uM incubated for 48 hrs by sulforhodamine B assay relative to control; format: functional; settings: read-out: Activity

compound | growth at 1 µM (%)
COc1cc(Cl)cc(-c2nn(-c3cccc(NC(=O)Nc4cc(C(F)(F)F)cc(C(F)(F)F)c4)c3)cc2-c2ccncc2)c1 | 36
O=C(Nc1cccc(-n2cc(-c3ccncc3)c(-c3cc(O)cc(Cl)c3)n2)c1)Nc1ccc(Cl)c(Cl)c1 | 76
COc1cc(Cl)cc(-c2nn(-c3cccc(NC(=O)c4ccc(N5CCOCC5)c(C(F)(F)F)c4)c3)cc2-c2ccncc2)c1 | 58
COc1cc(Cl)cc(-c2nn(-c3cccc(NC(=O)Nc4ccc(Cl)c(Cl)c4)c3)cc2-c2ccncc2)c1 | 77
COc1cc(Cl)cc(-c2nn(-c3cccc(NC(=O)c4cccc(C(F)(F)F)c4)c3)cc2-c2ccncc2)c1 | 82
O=C(Nc1cccc(-n2cc(-c3ccncc3)c(-c3cc(O)cc(Cl)c3)n2)c1)Nc1ccc(Cl)c(C(F)(F)F)c1 | 94

* * *

system: HL-60(TB); assay: Growth inhibition of human HL-60(TB) cells incubated for 48 hrs by sulforhodamine B assay; type: functional, cell-based; settings: HL-60, 48 h, read-out: GI50
This listing pairs compounds with measured GI50.

compound | GI50
COc1cc(Cl)cc(-c2nn(-c3cccc(NC(=O)Nc4cccc(C(F)(F)F)c4)c3)cc2-c2ccncc2)c1 | 1910 nM
COc1cc(Cl)cc(-c2nn(-c3cccc(NC(=O)c4ccc(N5CCOCC5)c(C(F)(F)F)c4)c3)cc2-c2ccncc2)c1 | 4190 nM
O=C(Nc1cccc(-n2cc(-c3ccncc3)c(-c3cc(O)cc(Cl)c3)n2)c1)c1ccc(N2CCOCC2)c(C(F)(F)F)c1 | 810 nM
O=C(Nc1cccc(-n2cc(-c3ccncc3)c(-c3cc(O)cc(Cl)c3)n2)c1)Nc1ccc(Cl)c(C(F)(F)F)c1 | 2560 nM
